tested on: Saccharomyces cerevisiae; experiment: protein stability index of tFT-peptide fusion (C-terminal peptide) (PSI (0-1 scale)); higher = more stable (slower turnover); conditions: genetic background: wild type; temperature: 30 C;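 note: PSI is a weighted mean of sequencing reads over stability bins, variants kept only with over 10 reads, mCherry proximal and sfGFP distal, peptide attached via GGGS linker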
Think of 0.7 as a floor: if protein stability index stands on it or above, it is condition met; beneath it, condition not met.

Please review the following examples before continuing.
[[record]]
entry_sequence = "ACALRSLPPRPY"
target_under_test = "Saccharomyces cerevisiae"
class_label = "condition not met"

[[record]]
entry_sequence = "DSVRRMAEGKRE"
target_under_test = "Saccharomyces cerevisiae"
class_label = "condition not met"

[[record]]
entry_sequence = "LFPSSHFSLSLH"
target_under_test = "Saccharomyces cerevisiae"
class_label = "condition met"


Prompt: Is protein stability index for `PPPPSPPPILPP` at or above 0.7?
Completion: condition not met

Prompt: Confirm if protein stability index reported for the sequence `IVSNLILSKRCN` is 0.7 or above.
Completion: condition not met

Prompt: Please check the record `RHGLPPAPILSP` and state if its protein stability index is at or above 0.7.
Completion: condition not met

Prompt: Check the entry `PRPSPLSSLSVS` : does protein stability index equal or exceed 0.7?
Completion: condition met

Prompt: Kindly determine if protein stability index recorded for `LVSFSDTPMATA` is above or exactly 0.7.
Completion: condition met
